Procedure summary: in vitro
Run parameters: pig, PAMPA, pH 7.4
Value type: Papp (×10⁻⁶ cm/s)
Provide only the numeric value, understood in ×10⁻⁶ cm/s.

Task: Which Papp value is on record for Cc1nnc2n1-c1ccc(Cl)cc1C(c1ccccc1)=NC2 [Alprazolam] ?
Result: 5.1

Task: Entry CN1C(=O)CN=C(c2ccccc2)c2cc(Cl)ccc21 [Diazepam] please
Result: 13.7

* * *

Procedure summary: in vitro
Run parameters: PAMPA, pH 7.4
Where a SMILES comes first, the peptide text is derived from it. [ ]: non-standard residue; d: D form. βAla = NCCC(=O)O
Value type: Papp (×10⁻⁶ cm/s)
Report the value in ×10⁻⁶ cm/s with no unit label.

Task: Give its Papp value. Item: CSCC[C@@H]1NC(=O)[C@H](CC(=O)O)NC(=O)[C@H](Cc2ccccc2)NC(=O)[C@H](Cc2ccccc2)NC(=O)[C@H](Cc2ccc(O)cc2)NC(=O)[C@H](CCCNC(=N)N)NC(=O)CCNC(=O)[C@H](Cc2ccc(O)cc2)NC(=O)[C@H](Cc2c[nH]c3ccccc23)NC1=O [G4CP2] (cyclo(DMWY[βAla]RYFF))
Result: 3.3

Task: Now this one: C/C=C/C[C@@H](C)[C@@H](O)[C@H]1C(=O)N[C@@H](C(C)C)C(=O)N(C)CC(=O)N(C)[C@@H](CC(C)C)C(=O)N[C@@H](C(C)C)C(=O)N(C)[C@@H](CC(C)C)C(=O)N[C@@H](C)C(=O)N[C@H](C)C(=O)N(C)[C@@H](CC(C)C)C(=O)N(C)[C@@H](CC(C)C)C(=O)N(C)[C@@H](C(C)C)C(=O)N1C
Result: 0.93
